Each recorded value in this set is attributed to ChEMBL document CHEMBL1151796.

tested on: PANC-1; assay: Cytotoxicity against human PANC1 cells in nutrient-deprived condition; format: functional
assay.metric: Cytotoxicity (µM)
Numbers only, in µM.

Please review the following examples before continuing.
CC[C@H](O)c1cc(=O)oc2c(C(=O)CC(C)C)c(O)c3c(c12)OC(C)(C)C=C3	32
CCCC(=O)c1c(O)c(CC=C(C)C)c2oc(=O)cc([C@@H](O)CC)c2c1O	1
CCC(C)C(=O)c1c(O)c(CC=C(C)C)c2oc(=O)cc([C@@H](O)CC)c2c1O (some centres undefined)	2

Now look at this one.
Exercise: Please report Cytotoxicity for the following molecule: COc1cc(C[C@H]2C(=O)OC[C@@H]2Cc2ccc(OC)c(OC)c2)ccc1O
Solution: 1
